# SH2 binding enrichment values compiled below
Target: SHP2-C SH2;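 also: peptide library displayed on the E. coli surface as eCPX fusions, selected cells deep-sequenced, score is each peptide's frequency after selection divided by its frequency in the input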
Assay: SH2 binding enrichment of the phosphorylated peptide, bacterial display (enrichment ratio); higher = better substrate or ligand; peptides without Tyr show the background
// print number alone

| SEQUENCE_DATA | SH2 binding enrichment |
| --- | --- |
| VKKNRYKDILP [PTPN12_Y64] | 0.704 |
| KNNDGYIDYAE [MCFD2_Y135] | 0.695 |
| SHNKYYMLVAH [MFSD8_Y134_R139H] | 30 |

Request: Reported SH2 binding enrichment for DPGVSYHTREE [PDHA1_Y301_R302H] : what is it?
Result: 0.713

Request: Fill in the blank: the reported SH2 binding enrichment of KWTVDYLGQVG [TYW5_Y48_S50G] is ____.
Result: 0.918

Request: GET /values?readout=SH2 binding enrichment&item= VHNLDYYKQTT [FGFR3_Y647_K650Q]
Result: 0.752

Request: Name the recorded SH2 binding enrichment for LYEDHYLLGTS [ASS1_Y87_R86H] .
Result: 0.565

Request: Recorded SH2 binding enrichment of DQLVKYGVNPG [TMPO_Y127] , please.
Result: 0.498
